Reference source: patent US5391540A

Test system: Common Lambsquarters
Test: Pre-emergent herbicidal activity (Table A)
Assay type: in vivo
Conditions: Chenopodium album, pre-emergence, Colq, 11.2 kg/ha, 10-14 days, read-out: herbicidal rating (% inhibition)
MEASURED QUANTITY: inhibition at 11200 g/ha

Observe how each entry below is paired with its result.
| MOLECULE | inhibition at 11200 g/ha |
| --- | --- |
| COC(=O)c1c(OC)nc(C(F)(F)F)c(C(=O)N2CCCC2)c1CC(C)C [Compound 66] | 75 to 100% |
| COC(=O)c1c(C(F)(F)F)[nH]c(=O)c(C#N)c1CC(C)C [Compound 22] | 0 to 24% |
| CCOc1nc(C(F)(F)F)c(C(=NC)SC)c(CC(C)C)c1C(=O)OC [Compound 46] | 75 to 100% |
| COC=Nc1c(C(F)(F)F)nc(OC)c(C(=O)OC)c1CC(C)C [Compound 76] | 75 to 100% |
| CCOC(=O)c1c(OC)nc(C(F)F)c(C(=O)OC)c1CC(C)C [Compound 26] | 75 to 100% |
| COC(=O)c1c(OC)nc(C(F)(F)F)c(N=CN(C)C)c1CC(C)C [Compound 62] | 75 to 100% |

Turning now to a further record.
Look up and state reported inhibition at 11200 g/ha for COC(=O)c1c(C(F)(F)F)nc(OC)c(C(=O)NCCO)c1CC(C)C [Compound 25]
0 to 24%
